SYSTEM_TESTED: ATR kinase (Homo sapiens (Human))
Sequence (Q13535 whole entry): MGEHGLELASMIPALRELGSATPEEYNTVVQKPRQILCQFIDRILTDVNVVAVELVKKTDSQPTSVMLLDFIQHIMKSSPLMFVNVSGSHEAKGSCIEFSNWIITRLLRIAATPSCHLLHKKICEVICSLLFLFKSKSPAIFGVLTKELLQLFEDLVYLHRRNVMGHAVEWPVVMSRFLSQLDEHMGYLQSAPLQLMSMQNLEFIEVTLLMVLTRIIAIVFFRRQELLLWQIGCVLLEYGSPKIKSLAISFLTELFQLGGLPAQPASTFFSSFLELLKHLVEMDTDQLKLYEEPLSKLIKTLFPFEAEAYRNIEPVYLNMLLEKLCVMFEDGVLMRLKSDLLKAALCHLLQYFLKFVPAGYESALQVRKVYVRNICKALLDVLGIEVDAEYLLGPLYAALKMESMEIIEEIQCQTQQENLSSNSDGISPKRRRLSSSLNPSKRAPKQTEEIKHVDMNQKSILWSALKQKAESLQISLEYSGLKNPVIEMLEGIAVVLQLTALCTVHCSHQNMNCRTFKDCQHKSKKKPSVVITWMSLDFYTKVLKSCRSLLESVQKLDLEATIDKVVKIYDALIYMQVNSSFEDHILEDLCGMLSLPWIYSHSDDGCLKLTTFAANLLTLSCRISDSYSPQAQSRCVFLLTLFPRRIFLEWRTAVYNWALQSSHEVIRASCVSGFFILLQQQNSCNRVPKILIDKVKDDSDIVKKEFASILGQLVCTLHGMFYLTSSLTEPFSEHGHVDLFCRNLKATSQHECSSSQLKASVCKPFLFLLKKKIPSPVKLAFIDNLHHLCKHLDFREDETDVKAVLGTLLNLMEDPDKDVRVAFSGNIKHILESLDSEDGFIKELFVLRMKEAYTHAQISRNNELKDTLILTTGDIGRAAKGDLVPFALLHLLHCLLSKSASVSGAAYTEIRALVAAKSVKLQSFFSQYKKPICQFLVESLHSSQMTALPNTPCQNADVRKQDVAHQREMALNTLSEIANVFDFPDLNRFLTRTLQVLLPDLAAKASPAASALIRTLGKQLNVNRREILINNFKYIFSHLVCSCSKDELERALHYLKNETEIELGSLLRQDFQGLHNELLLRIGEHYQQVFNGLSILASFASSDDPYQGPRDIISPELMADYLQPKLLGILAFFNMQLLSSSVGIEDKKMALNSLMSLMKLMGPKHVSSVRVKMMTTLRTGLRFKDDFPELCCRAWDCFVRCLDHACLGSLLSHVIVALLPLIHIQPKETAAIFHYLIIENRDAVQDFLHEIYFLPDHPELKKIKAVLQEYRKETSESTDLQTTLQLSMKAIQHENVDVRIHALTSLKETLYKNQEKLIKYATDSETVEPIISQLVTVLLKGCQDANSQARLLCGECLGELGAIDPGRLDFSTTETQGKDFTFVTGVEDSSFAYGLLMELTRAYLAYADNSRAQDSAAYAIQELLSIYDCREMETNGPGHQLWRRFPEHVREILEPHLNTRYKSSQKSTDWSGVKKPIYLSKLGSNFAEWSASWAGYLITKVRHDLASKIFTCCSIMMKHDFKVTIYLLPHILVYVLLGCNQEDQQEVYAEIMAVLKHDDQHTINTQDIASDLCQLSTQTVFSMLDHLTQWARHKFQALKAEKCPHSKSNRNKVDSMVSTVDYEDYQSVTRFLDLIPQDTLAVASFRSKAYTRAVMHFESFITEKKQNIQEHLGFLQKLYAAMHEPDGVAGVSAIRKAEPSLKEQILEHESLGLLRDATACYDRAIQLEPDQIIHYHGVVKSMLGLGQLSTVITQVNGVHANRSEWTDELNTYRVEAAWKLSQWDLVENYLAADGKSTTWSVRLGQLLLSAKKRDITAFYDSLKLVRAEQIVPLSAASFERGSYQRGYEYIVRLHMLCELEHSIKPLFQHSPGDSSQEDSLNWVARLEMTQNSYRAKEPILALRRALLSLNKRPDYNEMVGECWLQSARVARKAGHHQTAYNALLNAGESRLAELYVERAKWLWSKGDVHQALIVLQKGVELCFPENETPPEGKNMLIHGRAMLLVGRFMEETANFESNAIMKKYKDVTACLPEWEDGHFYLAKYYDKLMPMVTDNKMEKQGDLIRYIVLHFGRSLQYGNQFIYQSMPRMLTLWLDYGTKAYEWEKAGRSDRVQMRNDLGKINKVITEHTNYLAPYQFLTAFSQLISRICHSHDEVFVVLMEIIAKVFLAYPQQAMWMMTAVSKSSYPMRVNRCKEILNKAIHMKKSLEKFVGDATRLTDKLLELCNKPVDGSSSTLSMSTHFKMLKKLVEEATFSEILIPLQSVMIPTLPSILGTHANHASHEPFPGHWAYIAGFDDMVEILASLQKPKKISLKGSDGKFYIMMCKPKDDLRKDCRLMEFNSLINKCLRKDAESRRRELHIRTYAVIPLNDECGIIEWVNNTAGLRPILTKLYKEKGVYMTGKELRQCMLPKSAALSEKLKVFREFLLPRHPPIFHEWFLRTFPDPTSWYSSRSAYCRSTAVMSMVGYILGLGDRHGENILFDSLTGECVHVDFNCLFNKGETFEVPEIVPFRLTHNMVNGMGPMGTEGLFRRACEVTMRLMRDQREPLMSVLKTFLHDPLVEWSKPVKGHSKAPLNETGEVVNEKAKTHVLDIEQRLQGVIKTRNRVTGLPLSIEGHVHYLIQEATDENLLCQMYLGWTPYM
Sequence (Q8WXE1 whole entry partner): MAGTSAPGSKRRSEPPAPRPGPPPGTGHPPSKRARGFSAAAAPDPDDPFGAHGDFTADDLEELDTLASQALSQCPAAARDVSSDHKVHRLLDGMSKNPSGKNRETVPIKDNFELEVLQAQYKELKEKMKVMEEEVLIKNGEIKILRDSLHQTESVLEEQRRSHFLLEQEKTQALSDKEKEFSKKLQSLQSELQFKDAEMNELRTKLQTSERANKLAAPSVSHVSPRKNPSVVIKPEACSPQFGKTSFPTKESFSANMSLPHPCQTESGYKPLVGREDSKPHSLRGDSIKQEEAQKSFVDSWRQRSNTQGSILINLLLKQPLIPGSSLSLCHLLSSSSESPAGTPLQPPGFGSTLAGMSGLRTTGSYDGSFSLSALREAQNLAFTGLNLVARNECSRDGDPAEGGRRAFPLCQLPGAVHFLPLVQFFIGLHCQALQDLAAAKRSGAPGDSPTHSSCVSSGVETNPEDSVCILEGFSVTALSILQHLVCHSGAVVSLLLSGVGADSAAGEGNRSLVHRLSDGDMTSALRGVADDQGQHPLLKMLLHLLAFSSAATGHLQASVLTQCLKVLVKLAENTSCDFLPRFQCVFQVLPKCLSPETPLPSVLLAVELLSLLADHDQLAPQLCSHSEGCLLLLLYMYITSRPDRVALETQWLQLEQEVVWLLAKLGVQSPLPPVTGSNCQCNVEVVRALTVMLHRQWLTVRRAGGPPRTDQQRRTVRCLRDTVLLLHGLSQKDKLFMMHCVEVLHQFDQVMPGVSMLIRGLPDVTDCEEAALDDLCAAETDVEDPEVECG
MEASUREMENT_DESCRIPTION: Assay b) ATR cellular potency assay (pChk1 Ser345 in HT29 cells treated with 4NQO)
CONDITION_SUMMARY: HT29 cells, pChk1 Ser345 after 4NQO; geometric mean where repeated; read-out: Assay b) ATR Cell IC50
pIC50: −log10 of the molar value.
// pIC50 lookup, one value per entry

Here is how some molecules turned out for pIC50.
MOLECULE | PROPERTY_LABEL | RESULT
CN(C)CCCOc1ccc(-c2ccc3ncc4c(c3c2)n([C@@H]2CCCOC2)c(=O)n4C)cn1 [Example 16] | pIC50 | < 4.64
Cn1c(=O)n([C@@H]2CCCOC2)c2c3cc(-c4ccc(OCCCN5CCCCC5)nc4)ccc3ncc21 [Example 32] | pIC50 | < 4.52
CO[C@H]1C[C@@H](n2c(=O)n(C)c3cnc4cc(F)c(-c5ccc(OCCCN(C)C)nc5)cc4c32)C1 [Example 6] | pIC50 | < 4.52
O=c1[nH]c2cnc3ccc(-c4ccc(OCCCN5CCCCC5)nc4)cc3c2n1C1CCOCC1 [Example 36] | pIC50 | < 4.52
CN(C)CCCOc1ccc(-c2ccc3ncc4c(c3c2)n([C@H]2CCOC2)c(=O)n4C)cn1 [Example 45] | pIC50 | 5.02
CN(C)CCCOc1ccc(-c2ccc3ncc4c(c3c2)n([C@@H]2CCOC2)c(=O)n4C)c(F)n1 [Example 50] | pIC50 | < 4.52
CO[C@H]1C[C@@H](n2c(=O)[nH]c3cnc4ccc(-c5ccc(OCCCN(C)C)nc5)cc4c32)C1 [Example 12] | pIC50 | < 4.60
CO[C@H]1C[C@@H](n2c(=O)[nH]c3cnc4ccc(-c5ccc(OCCCN6CCCC6)nc5)cc4c32)C1 [Example 35] | pIC50 | 4.75
CO[C@H]1CC[C@H](n2c(=O)n(C)c3cnc4ccc(-c5ccc(OCCCN6CCCC6)nc5)cc4c32)C1 [Example 66] | pIC50 | 5.11
CO[C@H]1CC[C@@H](n2c(=O)n(C)c3cnc4cc(F)c(-c5ccc(OCCCN(C)C)nc5)cc4c32)C1 [Example 70] | pIC50 | < 4.60

Entry Cn1c(=O)n(C2CCOCC2)c2c3cc(-c4ccc(OCCCN5CCCCC5)nc4)ccc3ncc21 [Example 37] has what pIC50?
< 4.53

Entry Cn1c(=O)n([C@H]2C[C@@H](O)C2)c2c3cc(-c4ccc(OCCCN5CCC5)nc4)ccc3ncc21 [Example 14] has what pIC50?
< 4.52

Entry CNCCCOc1ccc(-c2ccc3ncc4c(c3c2)n([C@@H]2CCCOC2)c(=O)n4C)cn1 [Example 43] has what pIC50?
5.57

Entry Cn1c(=O)n([C@H]2CCCOC2)c2c3cc(-c4ccc(OCCCN5CCCCC5)nc4)ccc3ncc21 [Example 31] has what pIC50?
< 4.52

Entry CN(C)CCCOc1ccc(-c2ccc3ncc4c(c3c2)n(C2(C)CCOCC2)c(=O)n4C)cn1 [Example 7] has what pIC50?
4.97

Entry Cn1c(=O)n([C@@H]2CCCOC2)c2c3cc(-c4ccc(OCCCN5CCCC5)nc4)ccc3ncc21 [Example 59] has what pIC50?
< 4.72

###

SYSTEM_TESTED: PI3K-α (Homo sapiens)
Sequence (P42336 whole entry, looked up): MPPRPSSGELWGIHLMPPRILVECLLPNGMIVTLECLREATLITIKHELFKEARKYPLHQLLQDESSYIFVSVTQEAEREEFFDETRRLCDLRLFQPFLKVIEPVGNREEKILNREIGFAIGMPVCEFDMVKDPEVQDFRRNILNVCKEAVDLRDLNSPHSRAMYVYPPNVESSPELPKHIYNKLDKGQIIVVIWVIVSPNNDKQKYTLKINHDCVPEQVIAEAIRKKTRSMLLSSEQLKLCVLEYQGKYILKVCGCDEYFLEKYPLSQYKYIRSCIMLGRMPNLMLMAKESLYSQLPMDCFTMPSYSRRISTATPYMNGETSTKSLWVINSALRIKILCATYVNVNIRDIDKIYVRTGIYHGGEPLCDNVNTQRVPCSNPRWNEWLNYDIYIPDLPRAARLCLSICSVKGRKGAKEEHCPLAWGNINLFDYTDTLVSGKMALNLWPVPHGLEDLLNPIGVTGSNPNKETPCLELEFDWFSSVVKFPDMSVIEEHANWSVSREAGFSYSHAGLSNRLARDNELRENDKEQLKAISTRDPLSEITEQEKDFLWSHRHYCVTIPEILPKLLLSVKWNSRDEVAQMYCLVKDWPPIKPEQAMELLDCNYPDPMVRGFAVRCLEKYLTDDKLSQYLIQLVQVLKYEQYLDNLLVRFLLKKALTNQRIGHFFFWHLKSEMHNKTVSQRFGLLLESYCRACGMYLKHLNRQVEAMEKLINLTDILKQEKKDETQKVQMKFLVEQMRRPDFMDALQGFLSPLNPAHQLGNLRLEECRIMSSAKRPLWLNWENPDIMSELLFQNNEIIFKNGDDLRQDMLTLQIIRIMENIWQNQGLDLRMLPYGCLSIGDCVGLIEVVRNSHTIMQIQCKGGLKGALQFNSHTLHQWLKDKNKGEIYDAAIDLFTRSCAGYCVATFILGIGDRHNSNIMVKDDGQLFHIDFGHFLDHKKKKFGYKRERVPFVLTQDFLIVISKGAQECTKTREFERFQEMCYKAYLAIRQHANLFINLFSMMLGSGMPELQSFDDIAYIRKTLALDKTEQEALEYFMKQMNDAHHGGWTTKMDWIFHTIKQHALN
MEASUREMENT_DESCRIPTION: Assay c) PI3K cellular potency assay (phospho-Akt T308 ELISA in BT474 cells)
CONDITION_SUMMARY: BT474 cells, phospho-Akt T308, 2 h; geometric mean where repeated; read-out: Assay c) PI3Kα Cell IC50
pIC50: −log10 of the molar value. Where a name gives a salt, the structure may show the parent alone.
PROPERTY_LABEL: pIC50

Here is how some compounds turned out for pIC50.
COMPOUND | SYSTEM_TESTED | pIC50
Cn1c(=O)n([C@H]2CCCOC2)c2c3cc(-c4ccc(OCCCN5CCCCC5)nc4)ccc3ncc21 | PI3K-α (Homo sapiens) | < 4.96
Cn1c(=O)n(C2COC2)c2c3cc(-c4ccc(OCCCN5CCCCC5)nc4)ccc3ncc21 [Example 56, trifluoroacetic acid salt] | PI3K-α (Homo sapiens) | < 4.58

Entry `CO[C@H]1C[C@@H](n2c(=O)n(C)c3cnc4cc(F)c(-c5ccc(OCCCN6CCCC6)nc5)cc4c32)C1` has what pIC50?
< 4.53

Entry `CO[C@@H]1CC[C@@H](n2c(=O)n(C)c3cnc4ccc(-c5ccc(OCCCN6CCCC6)nc5)cc4c32)C1` has what pIC50?
< 5.55
